- target entity: MAO-A (Homo sapiens, UniProt P21397)
- Construct: purchased Merck MAK295
- Sequence (P21397 1-527): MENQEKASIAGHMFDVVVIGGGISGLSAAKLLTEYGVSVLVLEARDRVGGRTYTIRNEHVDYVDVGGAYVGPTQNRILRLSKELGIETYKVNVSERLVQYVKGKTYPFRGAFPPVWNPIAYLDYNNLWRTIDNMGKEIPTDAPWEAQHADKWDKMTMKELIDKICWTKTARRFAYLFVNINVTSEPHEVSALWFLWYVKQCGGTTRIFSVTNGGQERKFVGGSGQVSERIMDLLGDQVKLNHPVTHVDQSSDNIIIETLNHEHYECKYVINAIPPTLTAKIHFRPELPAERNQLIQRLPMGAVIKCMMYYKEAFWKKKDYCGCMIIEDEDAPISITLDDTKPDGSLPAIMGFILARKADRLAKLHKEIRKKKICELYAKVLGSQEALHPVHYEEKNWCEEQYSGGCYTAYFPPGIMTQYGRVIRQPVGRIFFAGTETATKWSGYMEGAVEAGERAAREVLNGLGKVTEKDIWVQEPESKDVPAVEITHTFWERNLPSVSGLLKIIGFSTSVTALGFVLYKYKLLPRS
- experiment: Monoamine Oxidase-A Inhibitor Screening Kit (Merck, MAK295), fluorometric assay
- Format: biochemical
- experimental parameters: concentration 1 uM
recorded endpoint: inhibition at 1 µM (%)
Give the quantity in %, number only.

O=C(Nc1ccc(Cl)cc1)C1=Cc2ccccc2OC1
0
Cc1nc(Nc2ncc3c(n2)CC(C)CC3=O)nc2ccccc12 (stereo not drawn)
0
CC(=O)Nc1ccc2c(c1)-c1ccccc1C2=O
80.5
O=c1c(-c2ccccc2)coc2cc(O)cc(O)c12
0
COc1ccc(C2SCC(=O)N2NC(=O)COc2ccc3c(C)cc(=O)oc3c2)cc1 (stereo not drawn)
0
O=C(Cn1c(=O)oc2ccccc21)Nc1nnc(SCc2ccccc2)s1
0
CC(=O)NCC1CN(c2ccc(N3CCOCC3)c(F)c2)C(=O)O1 (stereo not drawn)
4.19
Cc1csc(N/N=C/c2cc(Cl)ccc2Cl)n1
10.8

Now let's try a different one.
Recorded inhibition at 1 µM for `Cc1ccc(/C=N/Nc2nc3ccccc3nc2Cc2ccccc2)cc1` , please?
0

---

The reader will find reported inhibition at 1 µM values listed item by item below.
- target entity: MAO-B (Homo sapiens)
- Construct: purchased Merck MAK296
- Sequence (P27338 whole entry, species assumed): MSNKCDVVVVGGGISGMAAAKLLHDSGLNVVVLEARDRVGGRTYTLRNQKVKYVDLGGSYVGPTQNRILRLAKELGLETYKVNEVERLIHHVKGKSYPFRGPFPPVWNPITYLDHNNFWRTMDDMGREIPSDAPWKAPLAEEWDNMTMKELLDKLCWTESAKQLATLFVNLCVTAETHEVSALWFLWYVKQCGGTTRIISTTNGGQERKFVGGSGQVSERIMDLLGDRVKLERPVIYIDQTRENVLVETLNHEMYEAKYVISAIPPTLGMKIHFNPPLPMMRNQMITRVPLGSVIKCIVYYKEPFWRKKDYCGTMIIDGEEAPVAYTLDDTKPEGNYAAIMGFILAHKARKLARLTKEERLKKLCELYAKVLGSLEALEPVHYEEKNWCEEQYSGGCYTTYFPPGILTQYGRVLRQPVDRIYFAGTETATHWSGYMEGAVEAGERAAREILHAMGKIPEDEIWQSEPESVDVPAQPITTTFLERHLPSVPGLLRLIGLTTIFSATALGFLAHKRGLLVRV
- experiment: Monoamine Oxidase-B Inhibitor Screening Kit (Merck, MAK296), fluorometric assay
- Type: biochemical
- experimental parameters: concentration 1 uM
Give the quantity in %, number only.

Cc1nnc2c(Cc3ccccc3)nc3ccccc3n12 [Molport-002-872-748]
0
COc1ccc(C2SCC(=O)N2NC(=O)COc2ccc3c(C)cc(=O)oc3c2)cc1 (stereo not drawn) [MolPort-002-546-020]
0
Cc1c(-c2ccccc2)c(=O)oc2cc(OS(=O)(=O)c3ccc(Br)cc3)ccc12 [MolPort-000-479-802]
0

Recorded inhibition at 1 µM for Cc1nc(Nc2ncc3c(n2)CC(C)CC3=O)nc2ccccc12 (stereo not drawn) [MolPort-000-510-622] , please?
0

What do you have for O=C(Cn1c(=O)oc2ccccc21)Nc1nnc(SCc2ccccc2)s1 [MolPort-001-610-534] ?
0

What do you have for Cc1cc(=O)oc2c(C)c(OCc3nnc(S)n3-c3ccc(Br)cc3)ccc12 [MolPort-002-847-536] ?
11.9

What do you have for Clc1ccc(/C=N/c2ccc3[nH]ncc3c2)c(Cl)c1 [MolPort-002-945-866] ?
0

What do you have for Fc1ccc(-c2ccc3c(c2)[nH]c2ccncc23)cn1 [MolPort-044-831-708] ?
5.64

What do you have for Cc1cc(=O)oc2cc(OCC(=O)N/N=C/c3ccccc3)ccc12 [MolPort-002-548-000] ?
0
